Assayed System: AgrC-IV (Staphylococcus aureus, UniProt Q309Z2)
Sequence (Q309Z2 1-430): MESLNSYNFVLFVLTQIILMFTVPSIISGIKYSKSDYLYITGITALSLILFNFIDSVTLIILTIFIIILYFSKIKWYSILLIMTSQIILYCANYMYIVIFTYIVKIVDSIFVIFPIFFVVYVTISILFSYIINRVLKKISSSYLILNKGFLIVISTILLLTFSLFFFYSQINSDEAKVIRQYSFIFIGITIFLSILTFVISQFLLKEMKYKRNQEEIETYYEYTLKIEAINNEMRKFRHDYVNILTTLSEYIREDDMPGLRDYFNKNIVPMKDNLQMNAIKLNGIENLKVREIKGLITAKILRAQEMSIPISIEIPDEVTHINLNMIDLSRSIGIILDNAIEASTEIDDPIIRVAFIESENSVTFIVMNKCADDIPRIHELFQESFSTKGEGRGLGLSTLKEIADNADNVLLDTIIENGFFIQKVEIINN
Method Description: Hemolysis assay, wild-type group-IV strain RN4850, rabbit red blood cells
Test Conditions: read-out: AgrC-IV IC50; selected second-generation analogues, hemolysis assay; 200 fM − 10 μM
Positions of bridges follow the written chain, without caps; N, C: chain ends. Residues, ends and D or L forms follow the SMILES beside them.
For each entry below, report its IC50 value.
Could you give me the number in nM? Just the number is fine.

stdin: State, in one line, measured IC50 of CC(C)C[C@@H]1NC(=O)[C@H](Cc2ccccc2)NC(=O)[C@H](C)NC(=O)[C@@H](NC(=O)[C@H](C)NC(=O)[C@H](C)N)CSC(=O)[C@H](CC(C)C)NC1=O [AIP-III I1A/N2A/D4A, A-A-(C-A-F-L-L)] (H-AACAFLL; thioester 3-C)
stdout: 0.14

stdin: Answer with the recorded IC50 for the compound listed here: CC(=O)N[C@H]1CSC(=O)[C@H](CC(C)C)NC(=O)[C@H](CC(C)C)NC(=O)[C@H](Cc2c[nH]c3ccccc23)NC(=O)[C@H](C)NC1=O [Ac-(C-A-W-L-L)] (Ac-CAWLL; thioester 1-C)
stdout: 0.194

stdin: Fill in IC50 for record CC(=O)N[C@H]1CSC(=O)[C@H](CC(C)C)NC(=O)[C@H](CC(C)C)NC(=O)[C@H](Cc2ccc(O)cc2)NC(=O)[C@H](C)NC1=O [tAIP-III D2A/F3Y, Ac-(C-A-Y-L-L)] (Ac-CAYLL; thioester 1-C)
stdout: 0.134

stdin: Given CC[C@H](C)[C@H](N)C(=O)N[C@@H](C)C(=O)N[C@H]1CSC(=O)[C@H](CC(C)C)NC(=O)[C@H](CC(C)C)NC(=O)[C@H](Cc2ccccc2)NC(=O)[C@H](C)NC1=O [AIP-III N2A/D4A, I-A-(C-A-F-L-L)] (H-IACAFLL; thioester 3-C) , respond with its IC50.
stdout: 0.122

stdin: Supply reported IC50 belonging to this compound: CC(=O)N[C@H]1CSC(=O)[C@H](CC(C)C)NC(=O)[C@H](CC(C)C)NC(=O)[C@H](Cc2ccccc2)NC(=O)[C@H](C)NC1=O [tAIP-III D2A, Ac-(C-A-F-L-L)] (Ac-CAFLL; thioester 1-C)
stdout: 0.306

stdin: Report measured IC50; entry is CC(C)C[C@@H]1NC(=O)[C@H](Cc2ccccc2)NC(=O)[C@H](C)NC(=O)[C@@H](NC(=O)[C@H](CC(N)=O)NC(=O)[C@H](C)N)CSC(=O)[C@H](CC(C)C)NC1=O [AIP-III I1A/D4A, A-N-(C-A-F-L-L)] (H-ANCAFLL; thioester 3-C)
stdout: 0.284

----------
Assayed System: UniProt:O33590
Sequence (O33590 1-425): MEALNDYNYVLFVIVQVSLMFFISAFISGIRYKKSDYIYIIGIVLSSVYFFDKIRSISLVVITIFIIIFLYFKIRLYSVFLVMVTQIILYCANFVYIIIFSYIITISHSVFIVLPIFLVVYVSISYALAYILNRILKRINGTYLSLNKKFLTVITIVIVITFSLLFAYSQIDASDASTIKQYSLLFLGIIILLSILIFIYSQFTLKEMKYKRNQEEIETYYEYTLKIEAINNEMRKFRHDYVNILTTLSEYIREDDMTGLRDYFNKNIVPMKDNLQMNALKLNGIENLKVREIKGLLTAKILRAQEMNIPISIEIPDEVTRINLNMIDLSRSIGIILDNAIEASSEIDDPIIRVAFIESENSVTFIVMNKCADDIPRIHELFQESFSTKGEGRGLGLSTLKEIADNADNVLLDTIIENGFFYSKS
Test Conditions: read-out: AgrC-III EC50; β-lactamase reporter strain; 2.5 pM − 10 μM
Positions of bridges follow the written chain, without caps; N, C: chain ends. Non-standard residues stand in square brackets, D forms with d. Residues, ends and D or L forms follow the SMILES beside them. NMeF = CN[C@@H](Cc1ccccc1)C(=O)O; NMeN = CN[C@@H](CC(N)=O)C(=O)O; Nphe = O=C(O)CNCc1ccccc1
Provide the recorded pEC50 for the entries that follow.
Conceptually, pEC50 converts a concentration in mol/L into minus its log10.

stdin: Give the value of pEC50 reported for the following: CC[C@H](C)[C@H](N)C(=O)N[C@@H](CC(N)=O)C(=O)N[C@H]1CSC(=O)[C@H](CC(C)C)NC(=O)[C@H](CC(C)C)NC(=O)[C@H](Cc2ccccc2)N(C)C(=O)[C@H](CC(=O)O)NC1=O [AIP-III N-Me-F5, I-N-(C-D-NMeF-L-L)] (H-INCD[NMeF]LL; thioester 3-C)
stdout: 7.30

stdin: Report pEC50, nothing else, for this compound: CC[C@H](C)[C@H](N)C(=O)N[C@@H](CC(N)=O)C(=O)N[C@H]1CSC(=O)[C@H](CC(C)C)NC(=O)[C@H](CC(C)C)NC(=O)CN(Cc2ccccc2)C(=O)[C@H](CC(=O)O)NC1=O [AIP-III nF5, I-N-(C-D-nF-L-L)] (H-INCD[Nphe]LL; thioester 3-C)
stdout: 6.69

stdin: Return pEC50 (reported value) for this compound: CC[C@H](C)[C@H](N)C(=O)N(C)[C@@H](CC(N)=O)C(=O)N[C@H]1CSC(=O)[C@H](CC(C)C)NC(=O)[C@H](CC(C)C)NC(=O)[C@H](Cc2ccccc2)NC(=O)[C@H](CC(=O)O)NC1=O [AIP-III N-Me-N2, I-NMeN-(C-D-F-L-L)] (H-I[NMeN]CDFLL; thioester 3-C)
stdout: 7.72

----------
Assayed System: AgrC-II (Staphylococcus aureus, UniProt O33587)
Sequence (O33587 1-437): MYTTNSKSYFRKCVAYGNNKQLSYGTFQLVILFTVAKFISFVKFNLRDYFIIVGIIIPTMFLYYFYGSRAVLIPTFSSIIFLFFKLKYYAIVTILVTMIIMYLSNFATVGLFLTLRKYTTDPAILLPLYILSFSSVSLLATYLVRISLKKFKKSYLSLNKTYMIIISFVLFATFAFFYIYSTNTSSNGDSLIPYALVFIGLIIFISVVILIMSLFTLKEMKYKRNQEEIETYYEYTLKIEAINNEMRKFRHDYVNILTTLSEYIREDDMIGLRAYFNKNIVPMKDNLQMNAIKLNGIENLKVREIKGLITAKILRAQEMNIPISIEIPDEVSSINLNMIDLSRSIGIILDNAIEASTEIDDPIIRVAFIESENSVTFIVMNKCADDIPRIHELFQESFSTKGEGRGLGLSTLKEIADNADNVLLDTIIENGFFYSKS
Format: cell-based, S. aureus
Test Conditions: read-out: AgrC-II IC50; second-generation analogues, fluorescence reporter strain; 200 fM − 10 μM
Positions of bridges follow the written chain, without caps; N, C: chain ends. Residues, ends and D or L forms follow the SMILES beside them.
Observation Type: IC50 (nM)
Numeric answer only, unit nM assumed.

stdin: // fetch IC50 for CC(C)C[C@@H]1NC(=O)[C@H](Cc2ccccc2)NC(=O)[C@H](C)NC(=O)[C@@H](NC(=O)[C@H](CC(N)=O)NC(=O)[C@H](C)N)CSC(=O)[C@H](CC(C)C)NC1=O [AIP-III I1A/D4A, A-N-(C-A-F-L-L)] (H-ANCAFLL; thioester 3-C) ; system: AgrC-II (Staphylococcus aureus, UniProt O33587)
stdout: 2.35

stdin: Provide IC50, tested on AgrC-II (Staphylococcus aureus, UniProt O33587), for CC[C@H](C)[C@H](NC(=O)CN)C(=O)N[C@@H](CC(N)=O)C(=O)N[C@H]1CSC(=O)[C@H](CC(C)C)NC(=O)[C@H](CC(C)C)NC(=O)[C@H](Cc2ccccc2)NC(=O)[C@H](CC(=O)O)NC1=O [G-AIP-III, G-I-N-(C-D-F-L-L)] (H-GINCDFLL; thioester 4-C) .
stdout: 13.7

stdin: Look up and report IC50, with AgrC-II (Staphylococcus aureus, UniProt O33587) as system, for CC(=O)N[C@H]1CSC(=O)[C@H](CC(C)C)NC(=O)[C@H](CC(C)C)NC(=O)[C@H](Cc2c[nH]c3ccccc23)NC(=O)[C@H](C)NC1=O [Ac-(C-A-W-L-L)] (Ac-CAWLL; thioester 1-C)
stdout: 1.9

stdin: # assay system AgrC-II (Staphylococcus aureus, UniProt O33587): give IC50 of CC(C)C[C@@H]1NC(=O)[C@H](Cc2ccccc2)NC(=O)[C@H](C)NC(=O)[C@@H](NC(=O)[C@H](C)NC(=O)[C@H](C)N)CSC(=O)[C@H](CC(C)C)NC1=O [AIP-III I1A/N2A/D4A, A-A-(C-A-F-L-L)] (H-AACAFLL; thioester 3-C)
stdout: 0.604

----------
Give log10 of IC50 for every item shown.
Assayed System: AgrC-I (Staphylococcus aureus, UniProt O07911)
Sequence (O07911 1-430): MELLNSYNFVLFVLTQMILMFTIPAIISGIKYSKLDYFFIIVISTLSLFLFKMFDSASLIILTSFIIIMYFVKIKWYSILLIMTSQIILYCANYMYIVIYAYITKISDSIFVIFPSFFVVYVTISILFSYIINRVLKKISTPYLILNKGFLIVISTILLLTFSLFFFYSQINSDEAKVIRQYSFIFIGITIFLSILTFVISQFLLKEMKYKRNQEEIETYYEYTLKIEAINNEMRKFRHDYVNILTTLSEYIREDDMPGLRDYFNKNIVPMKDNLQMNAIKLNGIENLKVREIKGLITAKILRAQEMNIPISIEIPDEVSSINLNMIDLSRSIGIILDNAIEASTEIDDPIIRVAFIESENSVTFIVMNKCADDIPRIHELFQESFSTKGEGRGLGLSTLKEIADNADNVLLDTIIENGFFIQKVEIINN
Assay type: cell-based, S. aureus
Test Conditions: read-out: AgrC-I IC50; second-generation analogues, fluorescence reporter strain; 200 fM − 10 μM
Positions of bridges follow the written chain, without caps; N, C: chain ends. Residues, ends and D or L forms follow the SMILES beside them.
The common logarithm of IC50 in nM is what is listed.

stdin: Specify log10 of IC50 for CC[C@H](C)[C@H](N)C(=O)N[C@@H](C)C(=O)N[C@H]1CSC(=O)[C@H](CC(C)C)NC(=O)[C@H](CC(C)C)NC(=O)[C@H](Cc2ccccc2)NC(=O)[C@H](C)NC1=O [AIP-III N2A/D4A, I-A-(C-A-F-L-L)] (H-IACAFLL; thioester 3-C) , system AgrC-I (Staphylococcus aureus, UniProt O07911).
stdout: -0.48

stdin: Specify the recorded log10 of IC50 for CC[C@H](C)[C@H](NC(=O)[C@@H](N)Cc1ccc(O)cc1)C(=O)N[C@@H](CC(N)=O)C(=O)N[C@H]1CSC(=O)[C@H](CC(C)C)NC(=O)[C@H](CC(C)C)NC(=O)[C@H](Cc2ccccc2)NC(=O)[C@H](CC(=O)O)NC1=O [Y-AIP-III, Y-I-N-(C-D-F-L-L)] (H-YINCDFLL; thioester 4-C) , system: AgrC-I (Staphylococcus aureus, UniProt O07911).
stdout: 0.95

stdin: Report value only: log10 of IC50, AgrC-I (Staphylococcus aureus, UniProt O07911), CC[C@H](C)[C@H](NC(=O)[C@H](C)N)C(=O)N[C@@H](CC(N)=O)C(=O)N[C@H]1CSC(=O)[C@H](CC(C)C)NC(=O)[C@H](CC(C)C)NC(=O)[C@H](Cc2ccccc2)NC(=O)[C@H](CC(=O)O)NC1=O [A-AIP-III, A-I-N-(C-D-F-L-L)] (H-AINCDFLL; thioester 4-C)
stdout: 1.42

stdin: Find the measured log10 of IC50 of CC(C)C[C@@H]1NC(=O)[C@H](Cc2ccccc2)NC(=O)[C@H](CC(=O)O)NC(=O)[C@@H](NC(=O)[C@H](C)NC(=O)[C@H](C)N)CSC(=O)[C@H](CC(C)C)NC1=O [AIP-III I1A/N2A, A-A-(C-D-F-L-L)] (H-AACDFLL; thioester 3-C) with AgrC-I (Staphylococcus aureus, UniProt O07911) as test system.
stdout: 0.87

stdin: GET log10 of IC50 where system = AgrC-I (Staphylococcus aureus, UniProt O07911) and item = CC(=O)N[C@H]1CSC(=O)[C@H](CC(C)C)NC(=O)[C@H](CC(C)C)NC(=O)[C@H](Cc2c[nH]c3ccccc23)NC(=O)[C@H](C)NC1=O [Ac-(C-A-W-L-L)] (Ac-CAWLL; thioester 1-C)
stdout: -0.04

stdin: Under AgrC-I (Staphylococcus aureus, UniProt O07911): report log10 of IC50 of CC[C@H](C)[C@H](NC(=O)CN)C(=O)N[C@@H](CC(N)=O)C(=O)N[C@H]1CSC(=O)[C@H](CC(C)C)NC(=O)[C@H](CC(C)C)NC(=O)[C@H](Cc2ccccc2)NC(=O)[C@H](CC(=O)O)NC1=O [G-AIP-III, G-I-N-(C-D-F-L-L)] (H-GINCDFLL; thioester 4-C) .
stdout: 1.48

stdin: Supply log10 of IC50 measured with AgrC-I (Staphylococcus aureus, UniProt O07911) for CC(C)C[C@@H]1NC(=O)[C@H](Cc2ccccc2)NC(=O)[C@H](C)NC(=O)[C@@H](NC(=O)[C@H](CC(N)=O)NC(=O)[C@H](C)N)CSC(=O)[C@H](CC(C)C)NC1=O [AIP-III I1A/D4A, A-N-(C-A-F-L-L)] (H-ANCAFLL; thioester 3-C) .
stdout: -0.48

stdin: Fill in log10 of IC50 for CC(C)C[C@@H]1NC(=O)[C@H](Cc2ccccc2)NC(=O)[C@H](C)NC(=O)[C@@H](NC(=O)[C@H](C)NC(=O)[C@H](C)N)CSC(=O)[C@H](CC(C)C)NC1=O [AIP-III I1A/N2A/D4A, A-A-(C-A-F-L-L)] (H-AACAFLL; thioester 3-C) tested with AgrC-I (Staphylococcus aureus, UniProt O07911).
stdout: -0.52

stdin: Please look at CC(=O)N[C@H]1CSC(=O)[C@H](CC(C)C)NC(=O)[C@H](CC(C)C)NC(=O)[C@H](Cc2ccccc2)NC(=O)[C@H](CC(=O)O)NC1=O [tAIP-III, Ac-(C-D-F-L-L)] (Ac-CDFLL; thioester 1-C) and tell me its recorded log10 of IC50 on AgrC-I (Staphylococcus aureus, UniProt O07911).
stdout: 1.43
